Give measured viability, T/C for each item. Keep answers brief.
Tested on: 695427-040-R-J1-PDC complex spheroid viability
method: Anticancer human tumor 695427-040-R-J1-PDC patient-derived colon adenocarcinoma cell line growth inhibition [POLQ]
condition.parameters: second compound 0.0316 µM; first compound 3.16 µM; stronger effect = lower value
Give bare numbers, in %.

As a guide, the following entries are already answered.
compound	reported.metric	unit.text	measured
O=c1[nH]cc(F)c(=O)[nH]1 + COC1C(OC(N)=O)C(O)C(Oc2ccc3c(O)c(NC(=O)c4ccc(O)c(CC=C(C)C)c4)c(=O)oc3c2C)OC1(C)C	viability, T/C	%	103
C#Cc1c(F)ccc2cc(O)cc(-c3ncc4c(N5CC6CCC(C5)N6)nc(OCC56CCCN5CC(F)C6)nc4c3F)c12 (stereo unspecified) + Nc1ccc(C#CCN(C(=O)Cc2ncc(C(F)(F)F)cc2C(F)(F)F)c2ccc(F)cc2)nn1	viability, T/C	%	102
C=CC(=O)N1CCN(c2nc(=O)n(-c3c(C)ccnc3C(C)C)c3nc(-c4c(O)cccc4F)c(F)cc23)C(C)C1 (stereo unspecified) + Cc1cccc(N(C)C(=O)C2C(O)CCN2c2nc(C)cc(C(F)(F)F)c2C#N)c1	viability, T/C	%	107
CC1COCCN1c1cc(C2(O)CC3CCC(C2)O3)c2cnn(-c3ccn[nH]3)c2n1 (stereo unspecified) + COC1C(OC(N)=O)C(O)C(Oc2ccc3c(O)c(NC(=O)c4ccc(O)c(CC=C(C)C)c4)c(=O)oc3c2C)OC1(C)C	viability, T/C	%	50.9
Nc1ccn(C2OC(CO)C(O)C2(F)F)c(=O)n1 (stereo unspecified) + COC1C(OC(N)=O)C(O)C(Oc2ccc3c(O)c(NC(=O)c4ccc(O)c(CC=C(C)C)c4)c(=O)oc3c2C)OC1(C)C	viability, T/C	%	63.9

Take each entry in turn and give its viability, T/C.
1. O=C(c1cc(Cc2n[nH]c(=O)c3ccccc23)ccc1F)N1CCN(C(=O)C2CC2)CC1 + Nc1ccc(C#CCN(C(=O)Cc2ncc(C(F)(F)F)cc2C(F)(F)F)c2ccc(F)cc2)nn1
2. CC(C)n1c(=O)n(C)c2cnc3cc(F)c(-c4ccc(OCCCN5CCCCC5)nc4)cc3c21 + Nc1ccc(C#CCN(C(=O)Cc2ncc(C(F)(F)F)cc2C(F)(F)F)c2ccc(F)cc2)nn1
3. CC1COCCN1c1cc(-c2ccnn2C)c2ccnc(-c3ccn[nH]3)c2n1 (stereo unspecified) + Cc1cccc(N(C)C(=O)C2C(O)CCN2c2nc(C)cc(C(F)(F)F)c2C#N)c1
4. O=C(c1cc(Cc2n[nH]c(=O)c3ccccc23)ccc1F)N1CCN(C(=O)C2CC2)CC1 + COC1C(OC(N)=O)C(O)C(Oc2ccc3c(O)c(NC(=O)c4ccc(O)c(CC=C(C)C)c4)c(=O)oc3c2C)OC1(C)C
5. Nc1ccn(C2OC(CO)C(O)C2(F)F)c(=O)n1 (stereo unspecified) + Nc1ccc(C#CCN(C(=O)Cc2ncc(C(F)(F)F)cc2C(F)(F)F)c2ccc(F)cc2)nn1
6. COc1cc(C2c3cc4c(cc3C(OC3OC5COC(C)OC5C(O)C3O)C3COC(=O)C23)OCO4)cc(OC)c1O (stereo unspecified) + COC1C(OC(N)=O)C(O)C(Oc2ccc3c(O)c(NC(=O)c4ccc(O)c(CC=C(C)C)c4)c(=O)oc3c2C)OC1(C)C

Response:
1. 110
2. 100
3. 49
4. 110
5. 81.8
6. 98.4

----------
System: 695427-040-R-J1-PDC complex spheroid viability
method: Anticancer human tumor 695427-040-R-J1-PDC cell line growth inhibition [POLQ];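 note: spheroids exposed to compounds for seven days; 100% = DMSO vehicle control viability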
condition.parameters: second compound 10 µM; first compound 10 µM; stronger effect = lower value
reported.metric: viability, T/C (%)
One number for each entry, in %.

# annotated cases, reported viability, T/C shown
compound	unit.text	viability, T/C
CC1COCCN1c1cc(C2(S(C)(=N)=O)CC2)nc(-c2ccnc3[nH]ccc23)n1 (stereo not given) + Nc1ccc(C#CCN(C(=O)Cc2ncc(C(F)(F)F)cc2C(F)(F)F)c2ccc(F)cc2)nn1	%	74.9
COc1ccc([C@@H](O)c2cc(-c3ncnc4cc(N5CCOCC5)ccc34)c(F)cc2Cl)nn1 + Cc1cccc(N(C)C(=O)C2C(O)CCN2c2nc(C)cc(C(F)(F)F)c2C#N)c1	%	51
CC1COCCN1c1cc(C2(O)CC3CCC(C2)O3)c2cnn(-c3ccn[nH]3)c2n1 (stereo not given) + Cc1cccc(N(C)C(=O)C2C(O)CCN2c2nc(C)cc(C(F)(F)F)c2C#N)c1	%	45.6

Hi there! I need viability, T/C for each item below, if you can.
1. CCc1cc2c(N3CCc4c(cc(Cn5ccnc5)cc4-c4cn(C)nc4C(F)(F)F)C3=O)ccnc2c(OC)n1 + COC1C(OC(N)=O)C(O)C(Oc2ccc3c(O)c(NC(=O)c4ccc(O)c(CC=C(C)C)c4)c(=O)oc3c2C)OC1(C)C
2. CC(C)n1c(=O)n(C)c2cnc3cc(F)c(-c4ccc(OCCCN5CCCCC5)nc4)cc3c21 + Nc1ccc(C#CCN(C(=O)Cc2ncc(C(F)(F)F)cc2C(F)(F)F)c2ccc(F)cc2)nn1

Response:
96.3
88

// for each compound below, give its viability, T/C
1. CC1COCCN1c1cc(-c2ccnn2C)c2ccnc(-c3ccn[nH]3)c2n1 (stereo not given) + Cc1cccc(N(C)C(=O)C2C(O)CCN2c2nc(C)cc(C(F)(F)F)c2C#N)c1
2. CC1COCCN1c1cc(C2(O)CC3CCC(C2)O3)c2cnn(-c3ccn[nH]3)c2n1 (stereo not given) + COC1C(OC(N)=O)C(O)C(Oc2ccc3c(O)c(NC(=O)c4ccc(O)c(CC=C(C)C)c4)c(=O)oc3c2C)OC1(C)C
3. CNCc1ccc(-c2[nH]c3cc(F)cc4c3c2CCNC4=O)cc1 + COC1C(OC(N)=O)C(O)C(Oc2ccc3c(O)c(NC(=O)c4ccc(O)c(CC=C(C)C)c4)c(=O)oc3c2C)OC1(C)C
4. O=C(c1cc(Cc2n[nH]c(=O)c3ccccc23)ccc1F)N1CCN(C(=O)C2CC2)CC1 + COC1C(OC(N)=O)C(O)C(Oc2ccc3c(O)c(NC(=O)c4ccc(O)c(CC=C(C)C)c4)c(=O)oc3c2C)OC1(C)C
5. CCCS(=O)(=O)Nc1ccc(F)c(C(=O)c2c[nH]c3ncc(-c4ccc(Cl)cc4)cc23)c1F + Nc1ccc(C#CCN(C(=O)Cc2ncc(C(F)(F)F)cc2C(F)(F)F)c2ccc(F)cc2)nn1

Response:
1: 47.1; 2: 44.6; 3: 113; 4: 97; 5: 85.7

----------
System: 695427-040-R-J1-PDC complex spheroid viability
method: Anticancer human tumor 695427-040-R-J1-PDC cell line growth inhibition [POLQ];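 note: spheroids exposed to compounds for seven days; 100% = DMSO vehicle control viability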
condition.parameters: second compound 0.1 µM; first compound 0.316 µM; stronger effect = lower value
reported.metric: viability, T/C

Below, each entry is followed by its recorded viability, T/C result.
compound	viability, T/C
C=CC(=O)N1CCN(c2nc(=O)n(-c3c(C)ccnc3C(C)C)c3nc(-c4c(O)cccc4F)c(F)cc23)C(C)C1 (stereo unspecified) + COC1C(OC(N)=O)C(O)C(Oc2ccc3c(O)c(NC(=O)c4ccc(O)c(CC=C(C)C)c4)c(=O)oc3c2C)OC1(C)C	106%
Nc1ccn(C2OC(CO)C(O)C2(F)F)c(=O)n1 (stereo unspecified) + COC1C(OC(N)=O)C(O)C(Oc2ccc3c(O)c(NC(=O)c4ccc(O)c(CC=C(C)C)c4)c(=O)oc3c2C)OC1(C)C	73.1%
CC1COCCN1c1cc(C2(S(C)(=N)=O)CC2)nc(-c2ccnc3[nH]ccc23)n1 (stereo unspecified) + Cc1cccc(N(C)C(=O)C2C(O)CCN2c2nc(C)cc(C(F)(F)F)c2C#N)c1	98.5%

For each entry beneath this line, provide reported viability, T/C.
1. O=C(c1cc(Cc2n[nH]c(=O)c3ccccc23)ccc1F)N1CCN(C(=O)C2CC2)CC1 + Nc1ccc(C#CCN(C(=O)Cc2ncc(C(F)(F)F)cc2C(F)(F)F)c2ccc(F)cc2)nn1
2. COc1cc2cc(C(=O)CCC(=O)O)sc2cc1OC + Cc1cccc(N(C)C(=O)C2C(O)CCN2c2nc(C)cc(C(F)(F)F)c2C#N)c1
3. CCc1c2c(nc3ccc(O)cc13)-c1cc3c(c(=O)n1C2)COC(=O)[C@]3(O)CC + COC1C(OC(N)=O)C(O)C(Oc2ccc3c(O)c(NC(=O)c4ccc(O)c(CC=C(C)C)c4)c(=O)oc3c2C)OC1(C)C
4. CCCS(=O)(=O)Nc1ccc(F)c(C(=O)c2c[nH]c3ncc(-c4ccc(Cl)cc4)cc23)c1F + COC1C(OC(N)=O)C(O)C(Oc2ccc3c(O)c(NC(=O)c4ccc(O)c(CC=C(C)C)c4)c(=O)oc3c2C)OC1(C)C
5. COc1cccc2c1C(=O)c1c(O)c3c(c(O)c1C2=O)CC(O)(C(=O)CO)CC3OC1CC(N)C(O)C(C)O1 (stereo unspecified) + Cc1cccc(N(C)C(=O)C2C(O)CCN2c2nc(C)cc(C(F)(F)F)c2C#N)c1
6. CNCc1ccc(-c2[nH]c3cc(F)cc4c3c2CCNC4=O)cc1 + Cc1cccc(N(C)C(=O)C2C(O)CCN2c2nc(C)cc(C(F)(F)F)c2C#N)c1

Response:
["105%", "98.2%", "68.4%", "108%", "95.6%", "95.9%"]

Your task in this section: give viability, T/C for each listed record.
1. CCc1c2c(nc3ccc(O)cc13)-c1cc3c(c(=O)n1C2)COC(=O)[C@]3(O)CC + Cc1cccc(N(C)C(=O)C2C(O)CCN2c2nc(C)cc(C(F)(F)F)c2C#N)c1
2. C=CC(=O)N1CCN(c2nc(=O)n(-c3c(C)ccnc3C(C)C)c3nc(-c4c(O)cccc4F)c(F)cc23)C(C)C1 (stereo unspecified) + Cc1cccc(N(C)C(=O)C2C(O)CCN2c2nc(C)cc(C(F)(F)F)c2C#N)c1

Response:
1: 69.3%; 2: 101%
